- Tested on: Kelch-like ECH-associated protein 1 (Homo sapiens) + Nuclear factor erythroid 2-related factor 2 (Homo sapiens) (UniProt Q14145+Q16236)
- Sequence (Q14145 whole entry, looked up): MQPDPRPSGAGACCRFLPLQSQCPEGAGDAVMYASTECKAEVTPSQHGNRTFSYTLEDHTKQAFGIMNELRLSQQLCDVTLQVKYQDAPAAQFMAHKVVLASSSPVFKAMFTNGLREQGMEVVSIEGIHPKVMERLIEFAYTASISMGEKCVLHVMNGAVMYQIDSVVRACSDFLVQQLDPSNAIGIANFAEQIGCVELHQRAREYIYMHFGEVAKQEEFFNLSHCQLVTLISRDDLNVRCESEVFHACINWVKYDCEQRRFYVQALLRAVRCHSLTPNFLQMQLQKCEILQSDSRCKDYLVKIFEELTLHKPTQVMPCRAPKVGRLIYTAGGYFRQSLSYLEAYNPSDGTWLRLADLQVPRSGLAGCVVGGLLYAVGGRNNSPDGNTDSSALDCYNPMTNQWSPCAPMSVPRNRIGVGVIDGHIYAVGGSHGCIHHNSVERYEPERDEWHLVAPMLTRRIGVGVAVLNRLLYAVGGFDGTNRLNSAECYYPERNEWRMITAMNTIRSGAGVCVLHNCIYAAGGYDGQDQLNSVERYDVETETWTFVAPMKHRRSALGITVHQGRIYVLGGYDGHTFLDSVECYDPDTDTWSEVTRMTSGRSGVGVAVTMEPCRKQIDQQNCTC
- Sequence (Q16236 whole entry, looked up): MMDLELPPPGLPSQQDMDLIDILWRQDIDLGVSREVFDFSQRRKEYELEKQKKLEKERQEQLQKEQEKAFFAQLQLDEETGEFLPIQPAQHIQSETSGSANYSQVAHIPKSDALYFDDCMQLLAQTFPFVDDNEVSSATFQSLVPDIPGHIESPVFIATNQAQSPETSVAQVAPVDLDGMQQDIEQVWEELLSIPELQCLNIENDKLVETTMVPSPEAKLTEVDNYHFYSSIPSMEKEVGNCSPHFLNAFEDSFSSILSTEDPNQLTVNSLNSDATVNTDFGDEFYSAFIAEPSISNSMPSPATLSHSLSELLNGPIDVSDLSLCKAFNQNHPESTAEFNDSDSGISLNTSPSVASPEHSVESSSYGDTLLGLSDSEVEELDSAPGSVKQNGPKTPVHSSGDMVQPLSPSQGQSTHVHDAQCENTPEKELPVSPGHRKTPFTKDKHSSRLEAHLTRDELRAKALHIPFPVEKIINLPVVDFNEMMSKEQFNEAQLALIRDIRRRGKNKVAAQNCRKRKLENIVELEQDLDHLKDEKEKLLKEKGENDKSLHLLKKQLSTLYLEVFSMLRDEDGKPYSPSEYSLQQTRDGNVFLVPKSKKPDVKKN
- Assay details: Nrf2 nuclear translocation activators in cells, dose response, orthogonal assay for Keap1-Nrf2 interaction inhibitor project, PathHunter, U2OS cells, dry powder (AID 651833)
- Condition: beta-gal luminescence, 3 h
The source made the active and inactive calls.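 How the source made its calls: active means fitted curve reaching 40% activation at or below the sample's highest valid tested dose; inconclusive means flat fit between 30% and 70%, or poor fit; inactive means the rest, including opposite-direction activity.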
Result category, one only: active, inactive

Worked cases, answers included:
[
  {
    "Compound": "O=C(NC[C@@H]1c2ccccc2CCN1C(=O)[C@@H]1CCCC[C@@H]1C(=O)O)c1ccccc1",
    "Qualitative label": "inactive"
  },
  {
    "Compound": "Cc1cc(C)c(S(=O)(=O)Nc2cc(C(C(=O)OC(C)C)C(=O)C(F)(F)F)c(O)c3ccccc23)c(C)c1 (stereo not drawn)",
    "Qualitative label": "active"
  },
  {
    "Compound": "Cc1ccc(S(=O)(=O)NC2=CC(=N[C@@H](C)C(=O)OC(C)(C)C)C(=O)c3ccccc32)c(C)c1",
    "Qualitative label": "inactive"
  },
  {
    "Compound": "O=C(O)[C@H]1C2C=CC(C2)[C@H]1C(=O)N1CCc2ccccc2C1CN1C(=O)c2ccccc2C1=O (stereo partly drawn)",
    "Qualitative label": "inactive"
  },
  {
    "Compound": "Cc1ccc(S(=O)(=O)Nc2cc(C(C(=O)OC(C)C)C(=O)C(F)(F)F)c(O)c3ccccc23)c(C)c1 (stereo not drawn)",
    "Qualitative label": "active"
  }
]

Each compound tested received a call. Report the one for O=C(NC[C@@H]1c2ccccc2CCN1C(=O)[C@@H]1CCCC[C@@H]1C(=O)O)OCC1c2ccccc2-c2ccccc21 . inactive

====

- Tested on: Kelch-like ECH-associated protein 1 (Homo sapiens) + Nuclear factor erythroid 2-related factor 2 (Homo sapiens) (UniProt Q14145+Q16236)
- Assay details: Nrf2 nuclear translocation activators in cells, dose response, orthogonal assay for Keap1-Nrf2 interaction inhibitor project, PathHunter, U2OS cells, dry powder (AID 651833)
- Condition: beta-gal luminescence, 3 h, at 38 µM (top of the series)
Measurement type: activation (%)

Some solved cases for reference:
[
  {
    "Compound": "O=C(O)C1CCCCC1C(=O)NCC1c2ccccc2CCN1C(=O)Cc1ccccc1 (centres undefined)",
    "Measurement type": "activation",
    "Readout units": "%",
    "Measurement": 0.036
  },
  {
    "Compound": "O=C(O)[C@H]1CCCC[C@H]1C(=O)N1CCc2ccccc2[C@H]1CNS(=O)(=O)c1ccc([N+](=O)[O-])cc1",
    "Measurement type": "activation",
    "Readout units": "%",
    "Measurement": 6.37
  },
  {
    "Compound": "O=C(O)CCCC(=O)N1CCc2ccccc2C1CN1C(=O)c2ccccc2C1=O (centres undefined)",
    "Measurement type": "activation",
    "Readout units": "%",
    "Measurement": 3.41
  }
]

[A] O=C(O)CC(=O)N1CCc2ccccc2C1CN1C(=O)c2ccccc2C1=O (centres undefined)
[B] NC(=O)[C@H]1CCCC[C@H]1C(=O)N1CCc2ccccc2[C@H]1CN1C(=O)c2ccccc2C1=O
Between these two entries, A and B , state which has the higher activation. Mark your answer with the label of the selected entry. B

[P] O=C(O)C1CCCCC1C(=O)N1CCc2ccccc2[C@H]1C(=O)NCCc1ccccc1 (some centres undefined)
[Q] Cc1cc(C)c(S(=O)(=O)Nc2ncnc3ccccc23)c(C)c1
Lab log: flag the item ( P or Q ) with the smaller activation figure. Indicate your choice by writing its label. P
(P: 0.849%, Q: 2.9%)

====

- Tested on: Kelch-like ECH-associated protein 1 (Homo sapiens) + Nuclear factor erythroid 2-related factor 2 (Homo sapiens) (UniProt Q14145+Q16236)
- Assay details: Nrf2 nuclear translocation activators in cells, dose response, orthogonal assay for Keap1-Nrf2 interaction inhibitor project, PathHunter, U2OS cells, dry powder (AID 651833)
- Condition: beta-gal luminescence, 3 h, at 38 µM (top of the series)
Measurement type: activation (%)

Below, each entry is followed by its recorded activation result.
[
  {
    "Smiles code": "COc1ccc(CCN=C2C=C(NS(=O)(=O)c3c(C)cc(C)cc3C)c3ccccc3C2=O)cc1",
    "activation [%]": 5.19
  },
  {
    "Smiles code": "O=C(NC[C@@H]1c2ccccc2CCN1C(=O)[C@@H]1CCCC[C@@H]1C(=O)O)c1ccccc1CO",
    "activation [%]": 2.2
  }
]

[P] Cc1ccc(S(=O)(=O)NNc2nc(NCC(N)=O)nc3ccccc23)cc1
[Q] C=CC(=O)NC[C@@H]1c2ccccc2CCN1C(=O)[C@@H]1CCCC[C@@H]1C(=O)O
Quick one: lower activation, P or Q ? Respond using the label that marks the chosen record. P

====

- Tested on: Kelch-like ECH-associated protein 1 (Homo sapiens) + Nuclear factor erythroid 2-related factor 2 (Homo sapiens) (UniProt Q14145+Q16236)
- Assay details: Nrf2 nuclear translocation activators in cells, dose response, orthogonal assay for Keap1-Nrf2 interaction inhibitor project, PathHunter, U2OS cells, dry powder (AID 651833)
- Condition: beta-gal luminescence, 3 h
Activity calls are given as the source filed them.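 Rule for the calls: active = fitted curve reaching 40% activation at or below the sample's highest valid tested dose; inconclusive = flat fit between 30% and 70%, or poor fit; inactive = the rest, including opposite-direction activity.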
Outcome field: choose from yes (active), no (inactive)

The examples below pair each entry with its known result.
[
  {
    "Compound": "O=C(O)Cc1ccccc1C(=O)N1CCc2ccccc2[C@H]1CN1C(=O)c2ccccc2C1=O",
    "Qualitative label": "no"
  },
  {
    "Compound": "COC(=O)C(C(=O)OC)c1cc(NS(=O)(=O)c2c(C)cc(C)cc2C)c2ccccc2c1O",
    "Qualitative label": "yes"
  },
  {
    "Compound": "Cc1cc(C)c(S(=O)(=O)Nc2nc(C(C(=O)OC(C)C)C(=O)C(F)(F)F)nc3ccccc23)c(C)c1 (configuration not stated)",
    "Qualitative label": "no"
  },
  {
    "Compound": "Cc1ccccc1S(=O)(=O)Nc1cc(C(C(=O)OC(C)C)C(=O)C(F)(F)F)c(O)c2ccccc12 (configuration not stated)",
    "Qualitative label": "yes"
  },
  {
    "Compound": "O=C(O)C1CCCCC1C(=O)N1CCc2ccccc2C1CN1Cc2ccccc2C1=O (configuration not stated)",
    "Qualitative label": "no"
  }
]

Hey, what did the test say about Cc1ccc(S(=O)(=O)Nc2cc(C(C(=O)OC(C)C)C(=O)C(F)(F)F)c(O)c3ccccc23)cc1 (configuration not stated) ? yes

// param item: O=C(Oc1cc(CN2C(=O)c3ccccc3C2=O)c2ccccc2[n+]1[O-])c1cccc(Cl)c1 ; yields the recorded call yes

====

- Tested on: Kelch-like ECH-associated protein 1 (Homo sapiens) + Nuclear factor erythroid 2-related factor 2 (Homo sapiens) (UniProt Q14145+Q16236)
- Assay details: Nrf2 nuclear translocation activators in cells, dose response, orthogonal assay for Keap1-Nrf2 interaction inhibitor project, PathHunter, U2OS cells, dry powder (AID 651833)
- Condition: beta-gal luminescence, 3 h
Active and inactive are the calls of the source.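 How the source made its calls: active means fitted curve reaching 40% activation at or below the sample's highest valid tested dose; inconclusive means flat fit between 30% and 70%, or poor fit; inactive means the rest, including opposite-direction activity.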
Respond with a class label; see T = active, F = inactive

[
  {
    "Compound": "Cc1ccc(S(=O)(=O)NNc2nc(C(C(=O)OC(C)C)C(=O)C(F)(F)F)nc3ccccc23)cc1 (stereo not given)",
    "Qualitative label": "T"
  },
  {
    "Compound": "CC(C)OC(=O)C(C(=O)C(F)(F)F)c1cc(NS(=O)(=O)c2ccccc2)c2ccccc2c1O (stereo not given)",
    "Qualitative label": "T"
  },
  {
    "Compound": "O=C(NC[C@@H]1c2ccccc2CCN1C(=O)[C@@H]1CCCC[C@@H]1C(=O)O)c1ccc(CCl)cc1",
    "Qualitative label": "F"
  },
  {
    "Compound": "CC(=O)Nc1cc(NS(=O)(=O)c2c(C)cc(C)cc2C)c2ccccc2c1O",
    "Qualitative label": "T"
  }
]

Let's switch to this compound now.
Kindly provide the recorded test outcome for the following compound: Cc1ccc(S(=O)(=O)NNc2nc(N3CC(O)CC3C(=O)O)nc3ccccc23)cc1 (stereo not given) F
